All figures here come from PubChem BioAssay AID1159580.

Test: chemical genetic growth profiling, strain panel (AID 1159580);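 further: tested at 20 µM; growth read once vehicle control cultures reached saturation at 30 °C; 1 = growth at the plate median or of vehicle wells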
Settings: S. cerevisiae deletion strains, growth OD, locus YER167W, strain BCK2, stronger effect = lower value
The campaign covered roughly 5,500 compounds. About 2,000 (36%) were called active. Another 18% or so got no clear call; they are omitted. The list shows a part of the results.
Quantity name: normalized growth

compound=COc1ccc(/C=C/C(=O)O)cc1OC reported_measurement=1.01
compound=CC1=C(/C=C/C(C)=C/C=C/C(C)=C/CO)C(C)(C)CCC1 reported_measurement=1
compound=C[C@@]12C(=O)OC(=O)[C@]1(C)C1CCC2O1 reported_measurement=0.895
compound="CC[C@@H]1[C@@H](O)N2C3C[C@H]1C1C(O)[C@]4(C[C@@H]12)c1ccccc1N(C)[C@@H]34 (stereo not given in full)" reported_measurement=0.989
compound=COc1cc(/C=C/C(=O)O)cc(OC)c1OC reported_measurement=1.01
compound="CC[C@@]1(C2O[C@@H](C3O[C@@](O)(CC)[C@H](C)C[C@@H]3C)C[C@@H]2C)CC[C@H]([C@]2(C)CCC3(C[C@H](O)[C@@H](C)[C@@H]([C@H](C)[C@@H](OC)[C@H](C)C(=O)O)O3)O2)O1 (stereo not given in full)" reported_measurement=0.992
compound=CC1=C(/C=C/C(C)=C/C=C/C(C)=C/C=C/C=C(C)/C=C/C=C(C)/C=C/C2=C(C)CCCC2(C)C)C(C)(C)CCC1 reported_measurement=1.01
compound="CC1=CC(=O)CC(C)(C)C1(O)/C=C/C(C)=C\\C(=O)O (stereo not given)" reported_measurement=0.988
compound="COc1cc(C)c2c(c1C=O)Oc1c(c(C)c(O)c3c1C(O)OC3=O)OC2=O (stereo not given)" reported_measurement=0.986
compound=CC(=O)OC/C=C(C)/C=C/C=C(C)/C=C/C1=C(C)CCCC1(C)C reported_measurement=1.02

----------
Test: chemical genetic growth profiling, strain panel (AID 1159580);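 further: tested at 20 µM; growth read once vehicle control cultures reached saturation at 30 °C; 1 = growth at the plate median or of vehicle wells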
Details: S. cerevisiae deletion strains, growth OD, locus YJL164C, strain tpk1
About 2,000 (36%) of roughly 5,500 compounds were called active. Inconclusive results (about 18%) are left out. Rule as the data show it: active = normalized growth mostly below about 0.91 (no sharp cut-off); inconclusive = no clear call, values can overlap the other calls; inactive = mostly above about 0.92. This is one part of the list.
Classes used: t for active, f for inactive

compound="NC(=O)c1cc[n+](CC2=C(C(=O)O)N3C(=O)C(NC(=O)C(c4ccccc4)S(=O)(=O)[O-])C3SC2)cc1 (stereo not drawn)" category_label=f
compound=COS(C)(=O)=O category_label=f
compound=C=CCc1cc(OC)c2c(c1OC)OCO2 category_label=f
compound="COc1cc(C)c2c(c1C=O)Oc1c(c(C)c(O)c3c1C(O)OC3=O)OC2=O (stereo not drawn)" category_label=f
compound=C[C@@H]1C[C@@H]([C@H](O)CC2CC(=O)NC(=O)C2)C(=O)[C@@H](C)C1 category_label=t
compound=C=CC1=C(C)/C(=C/c2[nH]c(Cc3[nH]c(/C=C4\NC(=O)C(C)=C4C=C)c(C)c3CCC(=O)O)c(CCC(=O)O)c2C)NC1=O category_label=f
compound=Oc1ccc(/C=C/c2cc(O)cc(O)c2)cc1 category_label=f
compound=NC(=O)c1cnccn1 category_label=f
compound=OC/C=C/c1ccc(O)c(O)c1 category_label=f
compound=COc1ccc(C=CC(=O)c2ccc(O)cc2O)cc1OC category_label=t
compound=CC12CCC(CC1)C(C)(C)O2 category_label=f
compound=CCCc1cc(OC)c2c(c1)OCO2 category_label=f
compound="O=C(NC(=O)c1c(F)cccc1F)Nc1cc(Cl)c(OC(F)(F)C(F)C(F)(F)F)cc1Cl (stereo not drawn)" category_label=f
compound="O=C(O)CCCCC1SCC2NC(=O)NC21 (stereo not drawn)" category_label=f
compound=COc1ccc(/C=C/C(=O)O)cc1OC category_label=f
compound="CC1(C)CC2C1CCC1(C)OC2(C)CCC1O (stereo not drawn)" category_label=f
compound=CCn1cc(C(=O)O)c(=O)c2cnc(N3CCCC3)nc21 category_label=f
compound=CCOP(=S)(OCC)Oc1ccc2c(C)c(Cl)c(=O)oc2c1 category_label=f
compound="CC12CCCC(O)(C1)C1CC(C)(C)C1CC2 (stereo not drawn)" category_label=f
compound=C[C@](N)(Cc1ccc(O)c(O)c1)C(=O)O category_label=f
compound=CCOC(=O)c1ccc(N)cc1 category_label=f
compound=COc1cc(/C=C/C(=O)O)cc(OC)c1OC category_label=f
compound="CC[C@]1(O)CC2CN(CCc3c([nH]c4ccccc34)[C@@](C(=O)OC)(c3cc4c(cc3OC)N(C=O)[C@H]3[C@@](O)(C(=O)OC)[C@H](OC(C)=O)[C@]5(CC)C=CCN6CC[C@]43[C@@H]65)C2)C1 (stereo partly drawn)" category_label=f

----------
Assay: chemical genetic growth profiling, strain panel (AID 1159580);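 further: tested at 20 µM; growth read once vehicle control cultures reached saturation at 30 °C; 1 = growth at the plate median or of vehicle wells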
Settings: S. cerevisiae deletion strains, growth OD, locus YLR102C, strain apc9
About 2,000 (36%) of roughly 5,500 compounds were called active. About 18% were inconclusive and are not listed. No stated cut-off is given here; in the data, active means normalized growth mostly below about 0.91 (no sharp cut-off); inconclusive means no clear call, values can overlap the other calls; inactive means mostly above about 0.92. The list shows a part of the results.
Classes used: active, inactive

compound=COC(=O)[C@H]1[C@H]2C[C@@H]3c4[nH]c5cc(OC)ccc5c4CCN3C[C@H]2C[C@@H](OC(=O)c2cc(OC)c(OC)c(OC)c2)[C@@H]1OC category_label=inactive
compound=O=C(O)c1cc(=O)c2c(OCC(O)COc3cccc4oc(C(=O)O)cc(=O)c34)cccc2o1 category_label=inactive
compound="CC(Cc1ccc(O)c(O)c1)(NN)C(=O)O (configuration not stated)" category_label=inactive
compound=Oc1ccc(/C=C/c2cc(O)cc(O)c2)cc1 category_label=inactive
compound=COc1cc(C(=O)O)cc(OC)c1O category_label=inactive
compound="CC(=O)O[C@H]1CC[C@@]2(C)C(=CCC3C2CC[C@]2(C)C(=O)CCC32)C1 (some centres not stated)" category_label=inactive
compound=Oc1cc(O)cc(/C=C/c2ccccc2)c1 category_label=inactive
compound="CC(COc1ccccc1)N(CCCl)Cc1ccccc1 (configuration not stated)" category_label=inactive
compound="COc1cc2c(cc1O)CC1c3c(cc(O)c(OC)c3-2)CCN1C (configuration not stated)" category_label=inactive
compound=O=C(O)c1cc(O)c(O)c(O)c1 category_label=inactive
compound=COc1cc(O)cc(/C=C/c2ccccc2)c1 category_label=inactive
compound="CO[C@@H]1C[C@@H](C[C@H]2CC[C@H](C)[C@H]([C@@H](C)C(=O)O)O2)O[C@]2(O[C@](C)([C@H]3CC[C@@](C)(C4O[C@@H](C5O[C@@](O)(CO)[C@H](C)C[C@@H]5C)C[C@@H]4C)O3)C[C@H]2C)[C@@H]1C (some centres not stated)" category_label=inactive
compound=NCc1ccc(S(N)(=O)=O)cc1 category_label=inactive
compound="CCCNC(C)C(=O)Nc1ccccc1C (configuration not stated)" category_label=inactive
compound="CC1CC2C(C(O)CC3(C)C2CCC3(O)C(=O)COC(=O)CCC(=O)O)C2(C)C=CC(=O)C=C12 (configuration not stated)" category_label=inactive
compound=C[C@](N)(Cc1ccc(O)c(O)c1)C(=O)O category_label=inactive
compound=CCOP(=S)(OCC)SCSP(=S)(OCC)OCC category_label=inactive
compound=COc1ccc2c(c1O)-c1c(OC)c(OC)cc3c1[C@H](C2)N(C)CC3 category_label=inactive
compound=O=C1OCCN1/N=C\c1ccc([N+](=O)[O-])o1 category_label=inactive
compound=O=C1CN(/N=C\c2ccc([N+](=O)[O-])o2)C(=O)N1 category_label=inactive
compound="CCOC(=O)CCCCCCCCCCCCC1C=CCC1 (configuration not stated)" category_label=active
compound=COc1ccc(/C=C/c2cc(O)cc(O[C@@H]3O[C@H](CO)[C@@H](O)[C@H](O)[C@H]3O)c2)cc1O category_label=inactive
compound=CCOP(=S)(OCC)SCSCC category_label=inactive
compound=CN=C1CN(O)C(c2ccccc2)=c2cc(Cl)ccc2=N1 category_label=inactive
compound=O=C1N=C(O)CN1/N=C\c1ccc(-c2ccc([N+](=O)[O-])cc2)o1 category_label=inactive
compound=CO[C@@H]1[C@@H](O[C@@H]2O[C@H](C)[C@@H](O[C@H]3C[C@@](C)(O)[C@H](O)[C@H](C)O3)[C@H](N(C)C)[C@H]2O)[C@@H](CC=O)C[C@@H](C)[C@@H](O[C@H]2CC[C@H](N(C)C)[C@@H](C)O2)/C=C/C=C/C[C@H](C)OC(=O)C[C@H]1O category_label=inactive
compound=NC(=O)N/N=C\c1ccc([N+](=O)[O-])o1 category_label=inactive
compound="CC(C)C1=CC2=CCC3[C@](C)(CCC[C@]3(C)C(=O)O)C2CC1 (some centres not stated)" category_label=inactive
compound="Nc1nc(N)c2nc(CNc3ccc(C(=O)NC(CCC(=O)O)C(=O)O)cc3)cnc2n1 (configuration not stated)" category_label=inactive
compound=COc1ccccc1-c1cc(=O)c2cccc(OC)c2o1 category_label=inactive
compound=Cc1ccc(C(C)C)cc2c(C)ccc1-2 category_label=inactive
compound=CCOP(=S)(OCC)Oc1ccc2c(C)c(Cl)c(=O)oc2c1 category_label=inactive
compound=CCOP(=S)(OCC)SCCSCC category_label=inactive
compound=OC/C=C/c1ccc(O)c(O)c1 category_label=inactive
compound=C=CC1=C(C)/C(=C/c2[nH]c(Cc3[nH]c(/C=C4\NC(=O)C(C)=C4C=C)c(C)c3CCC(=O)O)c(CCC(=O)O)c2C)NC1=O category_label=inactive
compound="CN1CCc2cccc3c2C1Cc1ccc(O)c(O)c1-3 (configuration not stated)" category_label=inactive
compound="CCCCC(CC)CN=C(N)NC(N)=NCCCCCCN=C(N)NC(N)=NCC(CC)CCCC (configuration not stated)" category_label=active
compound="COc1ccc(C[C@H](N)C(=O)N[C@@H]2[C@@H](CO)OC(n3cnc4c(N(C)C)ncnc43)[C@@H]2O)cc1 (some centres not stated)" category_label=inactive
compound="CC12CCC3C(CC=C4CC(O)CCC43C)C1CCC2=O (configuration not stated)" category_label=inactive
compound=COc1ccccc1-c1cc(=O)c2c(OC)cccc2o1 category_label=inactive
compound=C[C@H](COc1ccccc1)N[C@H](C)[C@H](O)c1ccc(O)cc1 category_label=inactive
compound="OCC(S)CS (configuration not stated)" category_label=inactive
